method-notes: ATG_GRE_CIS: Attagene CIS-FACTORIAL HepG2 Assay for human Glucocorticoid Response Elements (GRE) (AID 2282947)
condition-info: HepG2 GRE cis-reporter, Attagene multiplex mRNA; actives raise or lower the signal
Calls of active or inactive are those of the source. Rule for the calls: active = hit-call score of the fitted dose curve at least 0.9, where 1 is the maximum; inactive = score below 0.9.
Pick one and only one: active, inactive

molecule=COP(=S)(OC)Oc1c(Cl)cc(C)cc1Cl label=inactive
molecule=ClC1=C(Cl)[C@]2(Cl)[C@@H]3[C@@H](Cl)[C@@H](Cl)C[C@@H]3[C@@]1(Cl)C2(Cl)Cl label=inactive
molecule=C=C(C)C(=O)[O][Sn]([CH2]CCC)([CH2]CCC)[CH2]CCC label=inactive
molecule="Fc1ccc(C2(Cn3cncn3)OC2c2ccccc2Cl)cc1 (configuration not stated)" label=inactive
molecule=Clc1nc(Cl)nc(Cl)n1 label=inactive
molecule=CNC label=inactive
molecule=C[C@@H](Oc1ccc(Cl)cc1Cl)C(=O)O label=inactive
molecule=C=CC#N label=inactive
molecule="Clc1ccc(COC(Cn2ccnc2)c2ccc(Cl)cc2Cl)cc1 (configuration not stated)" label=inactive
molecule=CC(=[OH+])/C=C(/C)[O-].CC(=[OH+])/C=C(/C)[O-].CC(=[OH+])/C=C(/C)[O-].[Al] label=inactive

Test call for this molecule, please: `Cl/C=C\C[N+]12CN3CN(CN(C3)C1)C2`
inactive

Test call for this molecule, please: CC(C#N)CCC#N (configuration not stated)
inactive

Test call for this molecule, please: `CCc1ccccc1C`
inactive

Test call for this molecule, please: `Cc1ccc2ccccc2c1C`
inactive

====

method-notes: APR_HepG2_p53Act_72hr: Apredica 72-hour HepG2 Assay for p53 Activation (AID 2282923);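 note: average cellular p53 protein immunofluorescence intensity in HepG2 cells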
condition-info: high-content imaging, actives raise or lower the signal
The source made the active and inactive calls. The calls were made as follows: active = hit-call score of the fitted dose curve at least 0.9, where 1 is the maximum; inactive = score below 0.9.
Pick one and only one: class 1 = active, class 0 = inactive

Please review the following examples before continuing.
compound=ClCC(Cl)CCl label="class 0"
compound=C[C@@H]1C[C@@H]([C@H](O)CC2CC(=O)NC(=O)C2)C(=O)[C@@H](C)C1 label="class 1"
compound=CC(=O)[O][Hg][c]1ccccc1 label="class 1"
compound=CN(C)N=O label="class 0"
compound=O=C(O)C(F)(F)C(F)(F)C(F)(F)C(F)(F)C(F)(F)C(F)(F)C(F)(F)C(F)(F)C(F)(F)C(F)(F)F label="class 1"
compound=CCC(C)(C)c1ccc(O)c(C(C)(C)CC)c1 label="class 1"
compound=CC(C)(OO)c1ccccc1 label="class 1"
compound=CCN1CCC2(CC1)COc1cc3c(cc12)N(C(=O)c1ccc(-c2ccc(-c4nnc(C)o4)cc2C)cc1)CC3 label="class 1"

Test call for this compound, please: `Cn1sc(Cl)cc1=O`
class 1

Test call for this compound, please: O=C1C2(Cl)C3(Cl)C4(Cl)C(Cl)(Cl)C5(Cl)C3(Cl)C1(Cl)C5(Cl)C24Cl (stereo not given)
class 1

Test call for this compound, please: `CC(C)(c1ccccc1)c1ccc(O)c(C(C)(C)c2ccccc2)c1`
class 0

Test call for this compound, please: CC12CC1(C)C(=O)N(c1cc(Cl)cc(Cl)c1)C2=O (stereo not given)
class 0

Test call for this compound, please: `C=C(C)C(=O)[O][Sn]([CH2]CCC)([CH2]CCC)[CH2]CCC`
class 1

Test call for this compound, please: `NC(=O)O`
class 1

Test call for this compound, please: `CC(C)(C)c1cc(O)ccc1O`
class 0
